ASSAY NAME: NCI Yeast Anticancer Drug Screen. Data for the bub3 strain (AID 167)
ASSAY CONDITIONS: S. cerevisiae bub3 mutant strain, at 5.0 µM (retest, dose inferred, filed as 0.5), hits give high values
The panel holds about 79,000 compounds, 15% with a hit somewhere; the sample as a whole holds those more often.
PROPERTY LABEL: growth inhibition (%)
Numbers only; they are read as %.

Here are 6 molecules together with their reported answers.
>>> reported_result("COc1ccc2c(c1)CCC1C2CCC2(C)C(=O)C(SC3=NC=NC4=NC=NC43)CC12 (centres undefined)")
19
>>> reported_result("Cc1cc(Oc2nc(Cl)nc(C(Cl)(Cl)Cl)c2Cl)cc(C)c1N(C)C (tested in a mixture with another compound)")
7
>>> reported_result("COC(=O)c1ccc(SCCC(=O)CCl)cc1")
38
>>> reported_result("COc1cc(C2c3cc4c(cc3C(OC3CCCCO3)C3COC(=O)C23)OCO4)cc(OC)c1OC (centres undefined)")
4
>>> reported_result("O=C(Nc1ccc(Cl)cc1)Nc1nnc2nc(C(C(=O)c3ccc(F)cc3)c3nc4nnc(NC(=O)Nc5ccc(Cl)cc5)n4[nH]c3=O)c(=O)[nH]n12")
-26
>>> reported_result("Cc1ccc(S(=O)(=O)C(=S)Sc2ccccc2)cc1")
17

Q: Name the recorded growth inhibition for "COC(=O)CCc1c(Cc2ccc[nH]2)[nH]c(C(=O)OCc2ccccc2)c1C" .
Result: -35

Q: Name the recorded growth inhibition for "Cc1ccc(O)c(-c2cscn2)c1" .
Result: 46

Q: Name the recorded growth inhibition for "S=C(N/N=C/c1ccco1)NC12CC3CC(CC(C3)C1)C2" .
Result: 71

Q: Name the recorded growth inhibition for COc1ccc(C(C)c2cc3c(cc2OC/C(C)=N/NC(N)=O)OCO3)cc1 (centres undefined) .
Result: 58

Q: Name the recorded growth inhibition for "CCC=Nc1c(O)cc(-c2ccccc2)n(C)c1=O" .
Result: 35

Q: Name the recorded growth inhibition for Nc1nc(Cl)cc(NCC2(CO)CC(CCCc3ccccc3)C2)n1 (centres undefined) .
Result: 15

Q: Name the recorded growth inhibition for "CC(=O)CCCOC(C)=O" .
Result: 62

Hey, just so you know, these numbers are from PubChem BioAssay (NCI).
